Origin of values: the RNAGym collection of RNA variant scans (doi:10.7554/elife.80360)

B1: CPEB3 Ribozyme (parent)
chain: GGGGGCCACAGCAGAAGCGUUCACGUCGCGGCCCCUGUCAGAUUCUGGUGAAUCUGCGAAUUCUGCUGU

- Variants of: B1
- Assay explanation: self-cleavage, relative activity (ratio to wild type); higher = more cleavage; co-transcriptional
Task for the reader: assign each of the following variants its reported self-cleavage.
Give bare numbers.

These recorded examples may help you get a feel for the data.
| Mutation notation | self-cleavage |
| --- | --- |
| U26C G48U | 1.01 |
| U44C C45G | 1 |
| U26A G58A | 0.627 |
| G4A U61C | 0.433 |
| G11C C57A | 0.252 |
| G3U A52C | 0.0886 |

Give self-cleavage for all variants that follow.
1. C18G A40G
2. A8G C33G
3. A10U G25A
4. A10C A42G
5. G4A U64A
6. G19U C24A

Result:
[0.122, 0.488, 0.171, 0.896, 0.7, 0.153]
